assay notes: LogD, octanol/water distribution coefficient
Type: physicochemical
run parameters: pH 7.4; octanol/water distribution coefficient at pH7.4
measure name: logD

# input Name the recorded logD for C#Cc1ccc(C(C(=O)NC2CCCC2)N(C(=O)c2ccc(-c3ccccc3)[nH]2)c2ccc(OC)cc2)cc1 (stereo not shown) [AZ462] .
# output > 4.5

# input Name the recorded logD for COc1ccc(N(C(=O)c2cc(-c3ccccc3)n(-c3ccccc3)n2)C(C(=O)NC2CCCC2)c2ccc(CC(=O)O)cc2)cc1 (stereo not shown) [AZ635] .
# output 2.74

# input Name the recorded logD for O=C(O)Cc1ccc(C(C(=O)NC2CCCC2)N(C(=O)c2cc(-c3ccccc3)n(-c3ccccc3)n2)c2ccc(Cc3ccccc3)cc2)cc1 (stereo not shown) [AZ897] .
# output 4.3

# input Name the recorded logD for COc1ccc(N(C(=O)c2[nH]c(-c3ccccc3)cc2C)C(C(=O)NC2CCCC2)c2ccncc2)cc1 (stereo not shown) [AZ126] .
# output > 4.5
